Data origin: ChEMBL document CHEMBL2331418

- method: Competitive inhibition of rabbit muscle glycogen phosphorylase b using constant concentration of glucose-1-phosphate, glycogen and varying concentration of AMP as substrate
- Assay type: tissue-based, Oryctolagus cuniculus, Muscle tissue
result type: Ki (µM)
Use µM as the unit, but write only the number.

Please review the following examples before continuing.
O=C(/C=C/c1ccc(O)cc1)O[C@@H](C(=O)O)[C@@H](OC(=O)/C=C/c1ccc(O)cc1)C(=O)O	11.3
O=C(/C=C/c1ccc(O)cc1)O[C@H](C(=O)O)[C@H](OC(=O)/C=C/c1ccc(O)cc1)C(=O)O	26.4
O=C(/C=C/c1ccc(O)cc1)O[C@H](C(=O)O)[C@@H](OC(=O)/C=C/c1ccc(O)cc1)C(=O)O	5.68

Now let's try a different one.
Q) May I ask what Ki has been recorded for `O=C(O)C[C@H](OC(=O)/C=C/c1ccc(O)cc1)[C@@H](OC(=O)/C=C/c1ccc(O)cc1)C(=O)O` ?
A) 0.2

* * *

- target entity: Glycogen phosphorylase, liver form (Homo sapiens, UniProt P06737)
- Sequence (P06737 whole entry): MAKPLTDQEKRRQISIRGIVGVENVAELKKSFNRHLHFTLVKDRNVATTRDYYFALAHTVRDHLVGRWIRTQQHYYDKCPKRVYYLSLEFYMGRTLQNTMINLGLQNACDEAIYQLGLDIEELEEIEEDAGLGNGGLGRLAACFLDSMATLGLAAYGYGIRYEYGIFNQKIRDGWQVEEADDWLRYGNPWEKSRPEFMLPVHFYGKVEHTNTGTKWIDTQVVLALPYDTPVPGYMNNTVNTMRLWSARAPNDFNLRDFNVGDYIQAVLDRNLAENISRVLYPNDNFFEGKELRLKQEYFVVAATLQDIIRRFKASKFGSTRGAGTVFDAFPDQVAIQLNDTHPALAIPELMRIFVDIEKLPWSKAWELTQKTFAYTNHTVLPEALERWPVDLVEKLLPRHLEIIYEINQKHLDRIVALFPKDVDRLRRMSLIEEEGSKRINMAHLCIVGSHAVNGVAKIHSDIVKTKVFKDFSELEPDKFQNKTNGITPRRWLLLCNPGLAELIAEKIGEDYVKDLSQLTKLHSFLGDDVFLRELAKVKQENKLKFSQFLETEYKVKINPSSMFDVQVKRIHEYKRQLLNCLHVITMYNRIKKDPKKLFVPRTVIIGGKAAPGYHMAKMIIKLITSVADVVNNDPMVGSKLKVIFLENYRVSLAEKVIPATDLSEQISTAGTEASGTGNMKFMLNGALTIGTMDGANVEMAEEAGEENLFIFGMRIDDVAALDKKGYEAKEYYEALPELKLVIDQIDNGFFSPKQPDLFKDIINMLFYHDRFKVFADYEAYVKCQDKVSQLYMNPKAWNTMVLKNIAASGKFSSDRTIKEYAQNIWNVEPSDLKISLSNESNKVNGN
result type: IC50 (µM)
A number alone suffices; assume µM.

Q) Recall the recorded IC50 for `O=C(O)C[C@H](OC(=O)/C=C/c1ccc(O)cc1)[C@@H](OC(=O)/C=C/c1ccc(O)cc1)C(=O)O` with Glycogen phosphorylase, liver form (Homo sapiens, UniProt P06737) and state it.
A) 2.5

* * *

- method: Non-competitive inhibition of rabbit muscle glycogen phosphorylase b using constant concentration of AMP, glycogen and varying concentration of glucose-1-phosphate as substrate
- Type: tissue-based, Oryctolagus cuniculus, Muscle tissue
Recorded measurements of Ki, one per entry
Return type: number; implicit unit µM.

Example entries and their recorded answers appear below.
O=C(/C=C/c1ccc(O)cc1)O[C@H](C(=O)O)[C@@H](OC(=O)/C=C/c1ccc(O)cc1)C(=O)O	71.4
O=C(O)C[C@H](OC(=O)/C=C/c1ccc(O)cc1)[C@@H](OC(=O)/C=C/c1ccc(O)cc1)C(=O)O	5.47
O=C(/C=C/c1ccc(O)cc1)O[C@H](C(=O)O)[C@H](OC(=O)/C=C/c1ccc(O)cc1)C(=O)O	109

Q) Item under review: `O=C(/C=C/c1ccc(O)cc1)O[C@@H](C(=O)O)[C@@H](OC(=O)/C=C/c1ccc(O)cc1)C(=O)O` . Reported Ki?
A) 300
